- MEASUREMENT DESCRIPTION: compounds altering in vitro BBB leakiness – cell-based, FITC-avidin fluorescence, HTS, primary screen (AID 1963498); further: test concentration not given here
- SETTINGS: brain endothelial barrier, actives lie on both sides
Calls of active or inactive are those of the source. No stated cut-off is given here; in the data, active means fold change permeability below about 0.7 or above about 1.3; inactive means in between.
The categories you may choose from are active, inactive

Query: Fill in: this test's call for Oc1ccc(-c2nc(-c3ccc(F)cc3)c(-c3ccncc3)[nH]2)cc1 is ___
Result: inactive

Query: Tell me the recorded outcome of this test for Cc1cc(O)c2c(c1)C(=O)c1cc(O)cc(O)c1C2=O .
Result: active

Query: Fill in: this test's call for CC(=O)SCC[N+](C)(C)C is ___
Result: inactive

Query: I would be grateful if you could indicate the recorded call for CCN(CC)CCNC(=O)c1cc(S(C)(=O)=O)ccc1OC .
Result: inactive

Query: Would you mind telling me which call this test gave CC(C)(C)c1ccc(C(=O)Nc2ccc(Nc3ccccc3)cc2)cc1 ?
Result: inactive

Query: Per the records of this test, what outcome belongs to CC(C)c1ccc2oc3nc(N)c(C(=O)O)cc3c(=O)c2c1 ?
Result: inactive

###

- MEASUREMENT DESCRIPTION: compounds altering in vitro BBB leakiness – cell-based, FITC-avidin fluorescence, HTS, primary screen (AID 1963498); further: test concentration not given here
- SETTINGS: brain endothelial barrier, actives lie on both sides
Quick rule for you: fold change permeability under 1 gets Y, anything else gets N.

Query: # strict comparison: is reported fold change permeability < 1? input = CC[C@]1(O)C[C@H]2CN(CCc3c([nH]c4ccccc34)[C@@](C(=O)OC)(c3cc4c(cc3OC)N(C=O)[C@H]3[C@@](O)(C(=O)OC)[C@H](OC(C)=O)[C@]5(CC)C=CCN6CC[C@]43[C@@H]65)C2)C1
Result: N

Query: API: query returns whether the compound falls strictly under 1 in fold change permeability. Query: CCN(CC)CCNC(=O)c1ccc(NC(C)=O)cc1
Result: N

Query: Consider the compound CCOC(=O)[C@@H](N)Cc1ccc(O)c(O)c1 . Is its fold change permeability strictly less than 1?
Result: Y

Query: Hello, is fold change permeability of the following compound strictly smaller than 1? O=C(O)c1cc2cc(Cc3cccnc3)ccc2o1
Result: Y

Query: Criterion: fold change permeability strictly below 1. Is it met by CN1CC(=O)NC1=NC(=O)Nc1cccc(Cl)c1 ?
Result: Y

Query: For CCCCCCN(CCCCCC)C(=O)Cc1c(-c2ccc(F)cc2)[nH]c2ccccc12 , is the recorded fold change permeability below the cut-off of 1?
Result: N

Query: Hi there! Is fold change permeability for C[C@]12CC[C@@H]3c4ccc(O)cc4CC[C@H]3[C@@H]1[C@@H](O)[C@@H](O)[C@@H]2O below 1, do you know?
Result: Y

Query: Regarding C[C@H](NCCc1ccc(O)cc1)[C@H](O)c1ccc(O)cc1 , kindly confirm whether its fold change permeability is beneath 1.
Result: Y

Query: hey, is fold change permeability for COCCOC(=O)C1=C(C)NC(C)=C(C(=O)OC/C=C/c2ccccc2)C1c1cccc([N+](=O)[O-])c1 (centres undefined) lower than 1 or not?
Result: N

###

- MEASUREMENT DESCRIPTION: compounds altering in vitro BBB leakiness – cell-based, FITC-avidin fluorescence, HTS, primary screen (AID 1963498); further: test concentration not given here
- SETTINGS: brain endothelial barrier, actives lie on both sides
Calls of active or inactive are those of the source. No stated cut-off is given here; in the data, active means fold change permeability below about 0.7 or above about 1.3; inactive means in between.
Your reply should match one of these outcome classes. active, inactive

Query: Test call for this compound, please: Cc1nc2c([nH]1)c(=O)n(C)c(=O)n2Cc1ccco1
Result: active

Query: Which outcome was assigned to CCCOc1ccccc1-c1nc2n[nH]nc2c(=O)[nH]1 in this test?
Result: active

Query: Short answer needed: outcome of this test for CCN(CC)Cc1ccc(C(=O)N(CCc2ccccc2OC)[C@@H]2CCNC2)cc1 ?
Result: inactive

Query: Fill in: this test's call for CCOC(=O)c1ccc(C#Cc2ccc3c(c2)C(C)(C)CCS3)nc1 is ___
Result: active

Query: How was CCN(CC)CC#CCOC(=O)C(O)(c1ccccc1)C1CCCCC1 (stereo not drawn) classified in this test?
Result: active

Query: What was the test verdict on CCCn1c(=O)c2[nH]c(C3CCCC3)nc2n(CCC)c1=O ?
Result: active

Query: I'd appreciate the recorded outcome for CC(C)C[C@H](NC(=O)[C@@H](O)[C@H](N)Cc1ccccc1)C(=O)O from this test.
Result: inactive

Query: Could you check what this test reported for N[C@@H](Cn1ccc(=O)c(O)c1)C(=O)O ?
Result: active

Cited source: PubChem BioAssay
